# assay_summary: clinical
# run_parameters: male, human, in vivo

{"columns": ["molecule", "Tmax"],
 "data": [
  ["COC[C@@]1(O)CC[C@]2(C)C3CC[C@@]4(C)C(CC[C@@H]4C(=O)Cn4ccnc4)C3CC[C@H]2C1 (stereo partly shown)", "1.5 to 5 h"]
]}

====

# assay_summary: clinical
# run_parameters: male, human, in vivo, po, 1 mg

{"columns": ["molecule", "Cmax"],
 "data": [
  ["COC[C@@]1(O)CC[C@]2(C)C3CC[C@@]4(C)C(CC[C@@H]4C(=O)Cn4ccnc4)C3CC[C@H]2C1 (stereo partly shown)", "1.3 ng/mL"]
]}

====

# assay_summary: clinical
# run_parameters: male, human, in vivo, po, 30 mg, AUC (0-last)
observed_property: AUC(0-t)

{"columns": ["compound", "observed_property", "result"],
 "data": [
  ["COC[C@@]1(O)CC[C@]2(C)C3CC[C@@]4(C)C(CC[C@@H]4C(=O)Cn4ccnc4)C3CC[C@H]2C1 (stereo partly shown)", "AUC(0-t)", "1120 ng·h/mL"]
]}

====

# assay_summary: escalating single-dose, randomized, double blind, placebo-controlled pharmacokinetic study, oral suspension, healthy male subjects
# run_parameters: human, plasma, 30 mg

{"columns": ["compound", "half-life"],
 "data": [
  ["COC[C@@]1(O)CC[C@]2(C)C3CC[C@@]4(C)C(CC[C@@H]4C(=O)Cn4ccnc4)C3CC[C@H]2C1 (stereo partly shown)", "13.1 h"]
]}

====

# assay_summary: clinical
# run_parameters: male, human, in vivo, 30 mg
observed_property: Cmax

{"columns": ["compound", "observed_property", "result"],
 "data": [
  ["COC[C@@]1(O)CC[C@]2(C)C3CC[C@@]4(C)C(CC[C@@H]4C(=O)Cn4ccnc4)C3CC[C@H]2C1 (stereo partly shown)", "Cmax", "95.6 to 154 ng/mL"]
]}

====

# assay_summary: clinical
# run_parameters: male, human, in vivo, po

{"columns": ["compound", "half-life"],
 "data": [
  ["COC[C@@]1(O)CC[C@]2(C)C3CC[C@@]4(C)C(CC[C@@H]4C(=O)Cn4ccnc4)C3CC[C@H]2C1 (stereo partly shown)", "~12 h"]
]}

====

# assay_summary: clinical
# run_parameters: male, human, in vivo, po, 3 mg

{"columns": ["compound", "Cmax (ng/mL)"],
 "data": [
  ["COC[C@@]1(O)CC[C@]2(C)C3CC[C@@]4(C)C(CC[C@@H]4C(=O)Cn4ccnc4)C3CC[C@H]2C1 (stereo partly shown)", 5.7]
]}

====

# assay_summary: clinical
# run_parameters: male, human, in vivo, po, 10 mg, AUC (0-24)
observed_property: AUC(0-t) (µg·h/mL)

{"columns": ["compound", "result_number"],
 "data": [
  ["COC[C@@]1(O)CC[C@]2(C)C3CC[C@@]4(C)C(CC[C@@H]4C(=O)Cn4ccnc4)C3CC[C@H]2C1 (stereo partly shown)", 0.213]
]}

====

# assay_summary: clinical
# run_parameters: male, human, in vivo, po, 1 mg, AUC (0-24)
observed_property: AUC(0-t) (ng·h/mL)

{"columns": ["compound", "observed_property", "result_number"],
 "data": [
  ["COC[C@@]1(O)CC[C@]2(C)C3CC[C@@]4(C)C(CC[C@@H]4C(=O)Cn4ccnc4)C3CC[C@H]2C1 (stereo partly shown)", "AUC(0-t)", 16.9]
]}
